Assay: Methylglyoxal reductase activity assay, kinetics of purified YqhD enzymes toward co-factor NADPH
Format: biochemical, E. coli
Reported Specific activity values for the following molecules.
assay.endpoint: Specific activity (µmol/min/mg)

molecule	assay.endpoint	value.observed
E. coli YqhD variant YqhD*(G149S) (Escherichia coli K-12; G149S) (protein) MNNFNLHTPTRILFGKGAIAGLREQIPHDARVLITYGGGSVKKTGVLDQVLDALKGMDVLEFGGIEPNPAYETLMNAVKLVREQKVTFLLAVGGGSVLDGTKFIAAAANYPENIDPWHILQTGGKEIKSAIPMGCVLTLPATGSESNASAVISRKTTGDKQAFHSAHVQPVFAVLDPVYTYTLPPRQVANGVVDAFVHTVEQYVTKPVDAKIQDRFAEGILLTLIEDGPKALKEPENYDVRANVMWAATQALNGLIGAGVPQDWATHMLGHELTAMHGLDHAQTLAIVLPALWNEKRDTKRAKLLQYAERVWNITEGSDDERIDAAIAATRNFFEQLGVPTHLSDYGLDGSSIPALLKKLEEHGMTQLGENHDITLDVSRRIYEAAR	Specific activity	3.78
E. coli YqhD variant YqhD*(G149E) (Escherichia coli K-12; G149E) (protein) MNNFNLHTPTRILFGKGAIAGLREQIPHDARVLITYGGGSVKKTGVLDQVLDALKGMDVLEFGGIEPNPAYETLMNAVKLVREQKVTFLLAVGGGSVLDGTKFIAAAANYPENIDPWHILQTGGKEIKSAIPMGCVLTLPATGSESNAEAVISRKTTGDKQAFHSAHVQPVFAVLDPVYTYTLPPRQVANGVVDAFVHTVEQYVTKPVDAKIQDRFAEGILLTLIEDGPKALKEPENYDVRANVMWAATQALNGLIGAGVPQDWATHMLGHELTAMHGLDHAQTLAIVLPALWNEKRDTKRAKLLQYAERVWNITEGSDDERIDAAIAATRNFFEQLGVPTHLSDYGLDGSSIPALLKKLEEHGMTQLGENHDITLDVSRRIYEAAR	Specific activity	4.86
E. coli YqhD variant YqhD*(G149S A286T) (Escherichia coli K-12; A286T/G149S) (protein) MNNFNLHTPTRILFGKGAIAGLREQIPHDARVLITYGGGSVKKTGVLDQVLDALKGMDVLEFGGIEPNPAYETLMNAVKLVREQKVTFLLAVGGGSVLDGTKFIAAAANYPENIDPWHILQTGGKEIKSAIPMGCVLTLPATGSESNASAVISRKTTGDKQAFHSAHVQPVFAVLDPVYTYTLPPRQVANGVVDAFVHTVEQYVTKPVDAKIQDRFAEGILLTLIEDGPKALKEPENYDVRANVMWAATQALNGLIGAGVPQDWATHMLGHELTAMHGLDHAQTLTIVLPALWNEKRDTKRAKLLQYAERVWNITEGSDDERIDAAIAATRNFFEQLGVPTHLSDYGLDGSSIPALLKKLEEHGMTQLGENHDITLDVSRRIYEAAR	Specific activity	3.17
